Cited source for all entries: paper PMC4242493

Assay System: Myc;MaxL (Homo sapiens;Homo sapiens, UniProt P01106-1;P61244 1-439;1-160, |)
Sequence (P01106 16-454, chain 1 of 2): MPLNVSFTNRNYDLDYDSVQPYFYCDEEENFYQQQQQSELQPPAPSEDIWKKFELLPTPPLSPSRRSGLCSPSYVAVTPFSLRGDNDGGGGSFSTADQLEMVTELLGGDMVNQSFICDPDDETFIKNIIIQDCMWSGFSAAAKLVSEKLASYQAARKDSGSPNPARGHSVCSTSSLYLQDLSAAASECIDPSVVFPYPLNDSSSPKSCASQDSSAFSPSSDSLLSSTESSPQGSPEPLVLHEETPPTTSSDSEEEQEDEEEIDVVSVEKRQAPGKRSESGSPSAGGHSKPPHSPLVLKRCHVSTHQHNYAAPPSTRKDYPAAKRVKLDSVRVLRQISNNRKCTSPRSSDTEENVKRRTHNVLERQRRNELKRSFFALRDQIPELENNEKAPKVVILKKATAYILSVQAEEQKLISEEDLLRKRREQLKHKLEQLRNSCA
Sequence (P61244 whole entry, chain 2 of 2): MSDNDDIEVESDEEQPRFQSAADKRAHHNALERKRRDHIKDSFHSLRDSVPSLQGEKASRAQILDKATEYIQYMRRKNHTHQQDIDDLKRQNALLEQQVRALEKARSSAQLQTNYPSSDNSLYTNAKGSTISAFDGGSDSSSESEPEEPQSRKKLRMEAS
Method Description: EMSA; 0.01 nM probe; EMSA: 25 mM HEPES pH 7.6, 100 mM KCl, 1 mM DTT, 0.1 mM EDTA, 0.01% Triton, 30 min at room temperature; 6% polyacrylamide gel in 0.5X Tris/glycine
Condition Parameters: protein: recombinant;recombinant; tags: C-terminal His-tag (pET21a);C-terminal His-tag (pET21a); copies: 1;1; label: 32P 5' end-labeled on both strands (Kd)
Quantity Measured: pKd
Value format note: pKd is -log10 of concentration (mol/L); just state the number.

Input: If you can, please state the reported pKd value of ATCTAG probe (26 bp) (dsDNA) DNA 1: GAGGGATCGGATCTAGGGATCGGAGG DNA 2: CCTCCGATCCCTAGATCCGATCCCTC .
Output: 7.70
